Documented IC50 across a set of molecules
TESTED TARGET: CMV-polymerase (Human cytomegalovirus (strain AD169) (HHV-5) (Human herpesvirus 5), UniProt P08546)
RUN DESCRIPTION: biochemical
CONDITION DETAILS: read-out: CMV-polymerase Biochemical IC50
Numeric answer only, unit nM assumed.

Previously resolved entries follow.
>  <MOLECULE>
Cn1nc(C(=O)NCc2ccc(Cl)cc2)c2c1C(=O)N(CC1(S(=O)(=O)NC(C)(CO)CO)CC1)CC2

>  <IC50, nM>
20

$$$$
>  <MOLECULE>
Cn1nc(C(=O)NCc2ccc(C#N)cc2)c2c1C(=O)N(CC1(S(=O)(=O)C(C)(C)CN3CCC(O)C3)CC1)CC2 (centres unmarked)

>  <IC50, nM>
1

$$$$
>  <MOLECULE>
Cn1nc(C(=O)NCc2ccc(Cl)cc2)c2c1C(=O)N(CC1(S(=O)(=O)NC(C)(C)CO)CC1)CC2

>  <IC50, nM>
15

$$$$
>  <MOLECULE>
C[C@H](NC(=O)c1nn(C)c2c1CCN(CC1(S(=O)(=O)C(C)(C)CO)CC1)C2=O)c1ccc(C#N)cc1

>  <IC50, nM>
2

$$$$
>  <MOLECULE>
Cn1nc(C(=O)NCc2ccc(C#N)cc2)c2c1C(=O)N(CC1(S(=O)(=O)N3C[C@@H](N)[C@H](O)C3)CC1)CC2

>  <IC50, nM>
8

$$$$

Now let's try a different one.
// query Look at this molecule and give its reported IC50. Cn1nc(C(=O)NCc2ccc(C#N)cc2)c2c1C(=O)N(CC1(S(=O)(=O)C(C)(C)[C@H](O)CO)CC1)CC2
// result 1

src = patent US12338220B2
